Tested on: LXRa:RXRa (NR concentration 270 nM, RXRa partner concentration 90 nM)
Assay: PBM binding z-score (relative to random genomic background probes); higher = stronger binding; sequences stand for … in GC…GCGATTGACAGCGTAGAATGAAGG
If the reported PBM binding z-score equals or exceeds 2, assign satisfied. If not, assign not satisfied.

Query block: Confirm if PBM binding z-score reported for the sequence "CCTGCTAGGTAATGGTCAGCTAATCTACAGTATG" is 2 or above.
Result block: not satisfied

====

Tested on: PPARg DBDmut IVT, anti-PPARg (DBD mutation: PPARg1 K132A/R137A, NR concentration 270 nM)
Assay: PBM binding z-score (relative to random genomic background probes); higher = stronger binding; sequences stand for … in GC…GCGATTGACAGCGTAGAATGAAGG
If the reported PBM binding z-score equals or exceeds 0.8, assign Yes. If not, assign No.

Example entries and their recorded answers appear below.
INSERT INTO results (record_sequence, class) VALUES
  ('ATTGAAAGGTCGAAGGTGAGTATACCCACCCGAA', 'No'),
  ('ATATGTAGGTTAGCTGGGGTCGTTCAGACTAGGC', 'Yes'),
  ('CTACCAAGGTGATCAAGGTCGTTGATTACTATTC', 'No');

Query block: Confirm if PBM binding z-score reported for the sequence "GTACCAAGTTGAATAGGTCGTTGATGAGTAGGCG" is 0.8 or above.
Result block: No

Query block: Confirm if PBM binding z-score reported for the sequence "GCATATAGGTAATACAAGGTGAAAGACCGATTGT" is 0.8 or above.
Result block: No
